Attribution: patent US9212209B2

tested on: SMN2-luciferase reporter; experiment: SMN2-luciferase reporter assay (clonal HEK-293 SMN2-luc cells); type: cell-based, human; settings: Homo sapiens, HEK293, reporter assay, Table 6; read-out: Ec50
pEC50: −log10 of the molar value.
Listed here: items and their measured pEC50.
Reported Metric: pEC50

>>> recorded_number("CC(C)c1nc(C(=O)Nc2ccc(F)c(Cl)c2)cs1")
5.82
>>> recorded_number("COc1cc2c(c(OC)c1OC)C(c1cc(Cl)ccc1F)OC(=O)N2 (centres unmarked)")
5.23
>>> recorded_number("O=C(Nc1cc(C2(O)CCC2)ccn1)c1ccc(F)c(Cl)c1")
6.40
>>> recorded_number("CC(C)(C)c1cc(NC(=O)c2cc3ccccc3[nH]2)no1")
6.40
>>> recorded_number("COc1cc2c(c(OC)c1OC)C(c1ccccc1Cl)CC(=O)N2 (centres unmarked)")
3.60
>>> recorded_number("Cn1c(C(=O)Nc2cc(C(C)(C)C)on2)cc2ccccc21")
6.15
>>> recorded_number("CC(C)c1cc(C(=O)Nc2ccc(F)c(Cl)c2)no1")
5.74
>>> recorded_number("COc1ccc(NC(=O)c2cc(C(C)C)on2)cc1OC")
4.03
>>> recorded_number("CC1CC(C(=O)Nc2ccc(F)c(Cl)c2)=NO1 (centres unmarked)")
5.00
>>> recorded_number("CC1CC(C(=O)Nc2ccc(Cl)cc2F)=NO1 (centres unmarked)")
5.19
>>> recorded_number("COc1ccc(NC(=O)C2=NOC(C)C2)cc1 (centres unmarked)")
5.10
